Biological target: human RXFP1 (Homo sapiens, UniProt Q9HBX9)
Sequence (Q9HBX9 whole entry): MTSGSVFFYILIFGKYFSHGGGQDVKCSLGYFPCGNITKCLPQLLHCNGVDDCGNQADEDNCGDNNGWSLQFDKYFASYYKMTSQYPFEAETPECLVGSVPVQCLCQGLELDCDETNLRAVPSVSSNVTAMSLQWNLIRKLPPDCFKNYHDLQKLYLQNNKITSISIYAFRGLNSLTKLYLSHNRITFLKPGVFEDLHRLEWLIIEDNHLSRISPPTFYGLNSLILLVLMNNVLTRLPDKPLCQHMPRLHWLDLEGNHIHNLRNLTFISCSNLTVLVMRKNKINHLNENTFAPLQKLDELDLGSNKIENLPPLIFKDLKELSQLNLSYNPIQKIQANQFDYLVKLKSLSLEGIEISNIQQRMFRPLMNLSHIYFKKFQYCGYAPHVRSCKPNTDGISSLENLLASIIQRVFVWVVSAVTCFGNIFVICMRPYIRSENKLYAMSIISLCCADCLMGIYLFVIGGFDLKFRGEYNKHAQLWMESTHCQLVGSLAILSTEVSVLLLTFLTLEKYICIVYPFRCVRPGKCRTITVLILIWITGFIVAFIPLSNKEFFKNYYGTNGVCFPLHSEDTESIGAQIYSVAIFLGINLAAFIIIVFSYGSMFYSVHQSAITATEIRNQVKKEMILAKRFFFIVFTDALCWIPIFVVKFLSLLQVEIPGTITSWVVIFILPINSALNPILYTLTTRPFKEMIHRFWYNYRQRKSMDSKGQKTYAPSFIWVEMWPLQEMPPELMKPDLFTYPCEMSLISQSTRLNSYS
Test: RXFP1 Hu cAMP (Test A)
Assay type: cell-based
Parameters: expressed in transfected cells; host or cells: Jump-In T-REx CHO-K1 cells (ThermoFisher), induced with 10 ng/ml doxycycline for 24 h
Details: RXFP1 Hu cAMP
OBSERVABLE: Test A Sinf (%)

COc1cc(F)c(O[C@H]2CC[C@@H](C(=O)O)CC2)cc1C(=O)N[C@@H]1[C@H]2CC[C@H](C2)[C@@H]1C(=O)Nc1cccc(OC(F)(F)F)c1F [Example 18] | 105
COc1cc(C#N)c(O[C@H]2CC[C@@](C)(C(=O)O)CC2)cc1C(=O)N[C@@H]1[C@H]2CC[C@H](C2)[C@@H]1C(=O)NCC1(OC)CCC1 [Example 80] | 105
COc1cc(C#N)c(O[C@H]2CC[C@@](C)(C(=O)O)CC2)cc1C(=O)Nc1cc(C)ccc1C(=O)N[C@H](C)C(C)C [Example 170] | 136
COc1cc(F)c(O[C@H]2CC[C@@H](C(=O)O)CC2)cc1C(=O)N[C@@H]1[C@H]2CC[C@H](C2)[C@@H]1C(=O)Nc1cccc(C(C)C)c1 [Example 196] | 103
COc1cc(F)c(O[C@H]2CC[C@@](F)(C(=O)O)CC2)cc1C(=O)N[C@@H]1[C@H]2CC[C@H](C2)[C@@H]1C(=O)NCC1(C)CCC1 [Example 415] | 103
COc1cc(C#N)c(O[C@H]2CC[C@@](C)(C(=O)O)CC2)cc1C(=O)N[C@@H]1[C@H]2CC[C@H](C2)[C@@H]1C(=O)NCC(C)(C)OC [Example 129] | 107
CCC(C)(C)CNC(=O)[C@H]1CCC[C@H]1NC(=O)c1cc(O[C@H]2CC[C@@](C)(C(=O)O)CC2)c(F)cc1OC [Example 58] | 99
COc1cc(F)c(O[C@H]2CC[C@@](C)(C(=O)O)CC2)cc1C(=O)N[C@@H]1[C@@H]2CC[C@@H](C2)[C@@H]1C(=O)Nc1cccc(S(=O)(=O)C(F)(F)F)c1 (racemic) [Example 367] | 110
COc1cc(C#N)c(O[C@H]2CC[C@@](C)(C(=O)O)CC2)cc1C(=O)N[C@H]1C2CCC(CC2)[C@H]1C(=O)NCC1(C)CCC1 (relative stereo) [Example 539] | 102
COc1cc(F)c(Oc2ccc(C(=O)O)cc2)cc1C(=O)N[C@H]1[C@@H](C(=O)Nc2cccc(S(=O)(=O)C(F)(F)F)c2)[C@@H]2C=C[C@H]1C2 (racemic) [Example 484] | 101
COc1cc(F)c(O[C@H]2CC[C@@](C)(C(=O)O)CC2)cc1C(=O)N[C@@H]1[C@@H]2CC[C@@H](C2)[C@@H]1C(=O)NCC(C)(C)C [Example 370] | 102
COc1cc(F)c(O[C@H]2CC[C@@](C)(C(=O)O)CC2)cc1C(=O)N[C@@H]1CCC[C@@H]1C(=O)N[C@@H](C)C(C)(C)C [Example 61] | 96
COc1cc(F)c(O[C@H]2CC[C@@H](C(=O)O)CC2)cc1C(=O)N[C@@H]1[C@H]2CC[C@H](C2)[C@@H]1C(=O)NCC1(C)CC1 [Example 198] | 99
COc1cc(F)c(O[C@H]2CC[C@@H](C(=O)O)CC2)cc1C(=O)N[C@@H]1[C@H]2CC[C@H](C2)[C@@H]1C(=O)Nc1cc(C#N)cc(C(F)(F)F)c1 [Example 191] | 86
COc1cc(F)c(O[C@H]2CC[C@@](C)(C(=O)O)CC2)cc1C(=O)NC1C2CCC(O2)C1C(=O)NCC1(C)CCC1 (single isomer, unassigned) [Example 530] | 96

The measured values listed here are drawn from patent US11667602B2.
